Reference for the values: PubChem BioAssay (NCI)

System: UACC-62 melanoma
Test: NCI tumour cell line growth inhibition, 48 h
The following compounds are listed with their measured TGI values.

| compound | target-system | readout | reported |
| --- | --- | --- | --- |
| CCNCCCn1c2c(c3ccc(F)cc3c1=O)C(=O)c1cc(OC)cnc1-2 | UACC-62 melanoma | TGI | 1.85 µM |
| O=C1c2ccccc2C(=O)N1C/C=N/NS(=O)(=O)c1ccc(F)cc1 | UACC-62 melanoma | TGI | > 100 µM |
| COC1=CC(=O)c2c(ccc3ncnc(N)c23)C1=O | UACC-62 melanoma | TGI | 3.42 µM |
| COC(=O)[C@](NC(=O)OCc1ccccc1)([C@@H](C)S(=O)c1ccc(C)cc1)C(F)(F)F (stereo not given in full) | UACC-62 melanoma | TGI | > 100 µM |

Documented TGI of O=C1C(Cl)C(c2cc(Br)cc(Br)c2O)N1n1cnc2ccccc2c1=O (stereo not given) : 49.3 µM

Documented TGI of `Oc1ccc(Nc2nc3ccccc3c3occc23)cc1` : 23.9 µM

Documented TGI of CCC(O)CC1OC2(CCC1C)CC1OC(=O)/C=C\C(C)(O)C(O)C(C)C(O)C(OC3CC(OC)C(O)C(C)O3)C(O)C(C)(O)CCC/C=C/C3CC(C)COC3(O)CC(O2)C1C (stereo not given) : 32.2 µM

Documented TGI of `COc1cc(/C=C/C(=O)Oc2ccc(NC(C)=O)cc2)ccc1C(=O)OCc1ccccc1` : > 97.1 µM

Documented TGI of `Cc1ccc(/C(=N/NS(=O)(=O)c2ccc([N+](=O)[O-])cc2)Sc2cc(Cl)c(C)cc2S(N)(=O)=O)cc1` : > 100 µM

Documented TGI of `O=C(CN=C(CN(c1ccccc1)c1ccccc1)Oc1c(Cl)cc(Cl)cc1Cl)N1c2ccccc2Sc2ccccc21` : > 100 µM
